Read-out record for UniProt P51532: IC50
Sequence (P51532 whole entry): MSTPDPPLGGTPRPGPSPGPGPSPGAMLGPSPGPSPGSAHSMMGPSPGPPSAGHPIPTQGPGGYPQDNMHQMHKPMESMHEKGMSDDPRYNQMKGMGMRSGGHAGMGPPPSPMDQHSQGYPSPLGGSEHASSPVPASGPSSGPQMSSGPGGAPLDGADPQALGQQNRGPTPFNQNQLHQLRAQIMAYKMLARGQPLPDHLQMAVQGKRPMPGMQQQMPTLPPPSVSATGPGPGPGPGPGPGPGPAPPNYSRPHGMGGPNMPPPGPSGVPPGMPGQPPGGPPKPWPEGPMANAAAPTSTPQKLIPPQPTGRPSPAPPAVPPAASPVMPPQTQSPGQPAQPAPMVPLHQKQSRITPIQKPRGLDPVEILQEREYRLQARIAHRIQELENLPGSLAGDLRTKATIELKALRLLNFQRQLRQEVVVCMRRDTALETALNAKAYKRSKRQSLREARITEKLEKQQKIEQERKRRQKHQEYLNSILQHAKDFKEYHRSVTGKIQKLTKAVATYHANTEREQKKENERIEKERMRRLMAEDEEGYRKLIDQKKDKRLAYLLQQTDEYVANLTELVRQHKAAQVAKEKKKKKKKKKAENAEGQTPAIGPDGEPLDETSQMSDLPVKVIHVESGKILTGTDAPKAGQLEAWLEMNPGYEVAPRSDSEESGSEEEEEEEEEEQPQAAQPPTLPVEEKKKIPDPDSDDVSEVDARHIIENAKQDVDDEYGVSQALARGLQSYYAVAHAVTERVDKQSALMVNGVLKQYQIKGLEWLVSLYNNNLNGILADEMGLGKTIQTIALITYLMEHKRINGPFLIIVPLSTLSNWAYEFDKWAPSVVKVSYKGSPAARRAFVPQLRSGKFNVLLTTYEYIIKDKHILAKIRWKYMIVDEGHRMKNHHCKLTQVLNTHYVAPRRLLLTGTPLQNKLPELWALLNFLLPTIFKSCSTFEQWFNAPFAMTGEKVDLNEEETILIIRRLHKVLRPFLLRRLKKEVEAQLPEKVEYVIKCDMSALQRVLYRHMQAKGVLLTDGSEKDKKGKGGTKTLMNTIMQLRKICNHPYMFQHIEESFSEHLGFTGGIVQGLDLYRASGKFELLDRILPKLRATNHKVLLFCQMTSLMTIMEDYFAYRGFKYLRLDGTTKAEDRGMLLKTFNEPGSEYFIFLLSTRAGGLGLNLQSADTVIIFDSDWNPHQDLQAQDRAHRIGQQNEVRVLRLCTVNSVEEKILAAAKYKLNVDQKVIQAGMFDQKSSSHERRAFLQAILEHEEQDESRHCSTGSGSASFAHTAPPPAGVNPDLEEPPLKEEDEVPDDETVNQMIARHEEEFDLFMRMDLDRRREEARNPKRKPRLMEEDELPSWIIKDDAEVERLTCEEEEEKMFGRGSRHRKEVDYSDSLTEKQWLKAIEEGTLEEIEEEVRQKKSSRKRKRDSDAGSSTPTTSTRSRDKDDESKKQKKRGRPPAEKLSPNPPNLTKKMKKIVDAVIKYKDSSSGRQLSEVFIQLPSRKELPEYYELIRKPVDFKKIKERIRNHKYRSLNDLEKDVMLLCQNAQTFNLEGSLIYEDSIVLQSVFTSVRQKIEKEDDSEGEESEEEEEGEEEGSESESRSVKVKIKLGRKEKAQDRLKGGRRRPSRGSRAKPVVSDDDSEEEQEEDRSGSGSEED

[[record]]
chemical_string = "COc1ccc(-c2ccc3cnc(CNC(=O)c4cc(F)c5c(c4)S(=O)(=O)[C@@H](F)COC5)cc3n2)nc1[C@H]1CC1(F)F"
obs_value = "106 nM"

[[record]]
chemical_string = "COc1nc(C(C)(F)F)ccc1-c1ccc2cnc(CNC(=O)c3cc(F)c4c(c3)S(=O)(=O)[C@@H](F)CCO4)cc2n1"
obs_value = "119 nM"

[[record]]
chemical_string = "O=C(NCc1cc2nc(N3CCOc4ccc([C@@H]5C[C@H]5F)nc43)ccc2cn1)c1cc(F)c2c(c1)S(=O)(=O)[C@@H](F)CCO2"
obs_value = "97 nM"


Would you mind telling me what IC50 value was observed for O=C(NCc1cc2nc(-c3cccc([C@H]4CC4(F)F)n3)ccc2cn1)c1cc(F)c2c(c1)S(=O)(=O)[C@@H](F)COC2 ?
123 nM

Would you mind telling me what IC50 value was observed for O=C(NCc1cc2nc(N3CCOc4c(N5CCC5)ccnc43)ccc2cn1)c1cc(F)c2c(c1)S(=O)(=O)[C@@H](F)CCO2 ?
46.2 nM

Would you mind telling me what IC50 value was observed for CCc1cnc2c(c1)OCCN2c1ccc2cnc(CNC(=O)c3cc(F)c4c(c3)S(=O)(=O)[C@@H](F)CCO4)cc2n1 ?
68 nM

Would you mind telling me what IC50 value was observed for O=C(NCc1cc2nc(N3CCOc4cc(N5C[C@@H](F)[C@@H](F)C5)cnc43)ccc2cn1)c1cc(F)c2c(c1)S(=O)(=O)[C@@H](F)CCO2 ?
74.9 nM
